target: Macrophage migration inhibitory factor (Homo sapiens, UniProt P14174); experiment: Inhibition of human recombinant MIF enolase activity using phenylpyruvate as substrate; conditions: read-out: IC50
endpoint name: pIC50
Units for pIC50: none; it is -log10 of a concentration expressed in mol/L.

given_smiles=O=C1/C(=C/c2ccc(O)cc2)COc2cc(O)ccc21 endpoint_name=pIC50 numeric_readout=5.06
given_smiles=O=C1/C(=C/c2ccc(O)cc2)Cc2ccccc21 endpoint_name=pIC50 numeric_readout=5.91
given_smiles=COc1ccc2c(c1)CC/C(=C\c1ccc(O)cc1)C2=O endpoint_name=pIC50 numeric_readout=5.53

Documented pIC50 of COc1ccc2c(c1)CC/C(=C\c1ccc(C)cc1)C2=O : 2.58

Documented pIC50 of O=C1/C(=C/c2ccc[nH]2)CCc2cc(O)ccc21 : 4.09

Documented pIC50 of O=C1/C(=C/c2ccc(O)cc2)CS(=O)(=O)c2ccccc21 : 3.99

====

Measured log10 IC50 by item
Molecular target: UniProt P14174
Sequence (P14174 whole entry): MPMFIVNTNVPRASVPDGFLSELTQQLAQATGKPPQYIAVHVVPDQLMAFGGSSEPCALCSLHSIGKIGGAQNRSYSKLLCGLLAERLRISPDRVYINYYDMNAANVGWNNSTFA
Assay: Inhibition of human recombinant MIF enolase activity using phenylpyruvate as substrate
Conditions: read-out: IC50
log10 IC50, µM

// solved cases for log10 IC50 follow
given_smiles=O=C1/C(=C/c2ccc(O)cc2)CCc2ccccc21 numeric_readout=0.29
given_smiles=CCN(CC)CCOc1ccc(/C=C2\CCc3cc(O)ccc3C2=O)cc1 numeric_readout=1.62
given_smiles=COc1ccc2c(c1)CC/C(=C\c1ccccc1)C2=O numeric_readout=2.10
given_smiles=O=C1/C(=C/c2ccccc2O)Cc2ccccc21 numeric_readout=2.60

Documented log10 IC50 of COc1ccc2c(c1)CC/C(=C\c1cccnc1)C2=O : 1.91

Documented log10 IC50 of O=C1/C(=C/c2ccccc2O)CCc2ccccc21 : 3.06

Documented log10 IC50 of O=C1/C(=C/c2ccc3c(c2)OCO3)CCc2cc(O)ccc21 : 1.82

====

Measured IC50 by item
target: Macrophage migration inhibitory factor (Homo sapiens, UniProt P14174); test: Inhibition of human recombinant MIF enolase activity using phenylpyruvate as substrate; settings: read-out: IC50
Express it in µM; write the number only.

// solved cases for IC50 follow
given_smiles=COc1cc(/C=C2\CCc3cc(O)ccc3C2=O)ccc1O numeric_readout=30.9
given_smiles=COc1cc(/C=C2\Cc3ccccc3C2=O)ccc1O numeric_readout=14.5
given_smiles=COc1ccc2c(c1)C(=O)/C(=C/c1cccc(O)c1O)C2 numeric_readout=17

Entry COc1cc(/C=C2\CCc3cc(OC)c(OC)cc3C2=O)ccc1O , tested on Macrophage migration inhibitory factor (Homo sapiens, UniProt P14174), has a reported IC50 of 104

Entry O=C1/C(=C/c2ccccc2)CCc2cc(O)ccc21 , tested on Macrophage migration inhibitory factor (Homo sapiens, UniProt P14174), has a reported IC50 of 1.99

Entry O=C1/C(=C/c2ccc(O)cc2)CSc2ccccc21 , tested on Macrophage migration inhibitory factor (Homo sapiens, UniProt P14174), has a reported IC50 of 827

Entry Cc1ccc(/C=C2\CCc3cc(O)ccc3C2=O)cc1 , tested on Macrophage migration inhibitory factor (Homo sapiens, UniProt P14174), has a reported IC50 of 71.4

Entry COc1ccc2c(c1)C/C(=C\c1cccc(O)c1O)C2=O , tested on Macrophage migration inhibitory factor (Homo sapiens, UniProt P14174), has a reported IC50 of 28.9

Entry O=C1/C(=C/c2ccccc2O)CCc2cc(O)ccc21 , tested on Macrophage migration inhibitory factor (Homo sapiens, UniProt P14174), has a reported IC50 of 50.2

Entry O=C1/C(=C/c2ccccn2)CCc2cc(O)ccc21 , tested on Macrophage migration inhibitory factor (Homo sapiens, UniProt P14174), has a reported IC50 of 65.9

Entry O=C1/C(=C/c2cc(O)cc(O)c2)CCc2ccccc21 , tested on Macrophage migration inhibitory factor (Homo sapiens, UniProt P14174), has a reported IC50 of 24.9

Entry CC(C)c1ccc(/C=C2\CCc3cc(O)ccc3C2=O)cc1 , tested on Macrophage migration inhibitory factor (Homo sapiens, UniProt P14174), has a reported IC50 of 4.43

All figures here come from ChEMBL document CHEMBL5331097.
